# Test system: A549 cells
# METHOD_NOTES: Micro RNA expression pattern by oligo microarray (Agilent Human miRNA array v16.0, 1347 human micro RNAs)
# Type: cell-based
# CONDITION_CONTEXT: A549, treated at IC20 for 48 hours; signal ratio to control lower than 0.66
Below is a list of entries, each paired with its recorded down-regulated micro RNA, share of 1347 micro RNAs value.
PROPERTY: down-regulated micro RNA, share of 1347 micro RNAs

- MOLECULE: "CCCCCC=O [hexanal]"
  RECORDED_RESULT: "0.07%"
- MOLECULE: "CCCCCCC=O [heptanal]"
  RECORDED_RESULT: "0.30%"
- MOLECULE: "CCC=O [propionaldehyde]"
  RECORDED_RESULT: "0.15%"
- MOLECULE: "CCCCC=O [valeraldehyde]"
  RECORDED_RESULT: "0.15%"
- MOLECULE: "CCCC=O [butylaldehyde]"
  RECORDED_RESULT: "0.82%"
- MOLECULE: "CCCCCCCCC=O [nonanal]"
  RECORDED_RESULT: "0.00%"
- MOLECULE: "CCCCCCCC=O [octanal]"
  RECORDED_RESULT: "1.04%"
